Reported binding capacity (%) is given for each of the following binders.
TEST_SYSTEM: T1, PKC-δ (purified isoform) (Homo sapiens (Human), UniProt Q05655 1-676)
T1 construct: also called PKC-delta; PKCdelta
T1 sequence (Q05655 whole entry, stated change not applied, canonical isoform): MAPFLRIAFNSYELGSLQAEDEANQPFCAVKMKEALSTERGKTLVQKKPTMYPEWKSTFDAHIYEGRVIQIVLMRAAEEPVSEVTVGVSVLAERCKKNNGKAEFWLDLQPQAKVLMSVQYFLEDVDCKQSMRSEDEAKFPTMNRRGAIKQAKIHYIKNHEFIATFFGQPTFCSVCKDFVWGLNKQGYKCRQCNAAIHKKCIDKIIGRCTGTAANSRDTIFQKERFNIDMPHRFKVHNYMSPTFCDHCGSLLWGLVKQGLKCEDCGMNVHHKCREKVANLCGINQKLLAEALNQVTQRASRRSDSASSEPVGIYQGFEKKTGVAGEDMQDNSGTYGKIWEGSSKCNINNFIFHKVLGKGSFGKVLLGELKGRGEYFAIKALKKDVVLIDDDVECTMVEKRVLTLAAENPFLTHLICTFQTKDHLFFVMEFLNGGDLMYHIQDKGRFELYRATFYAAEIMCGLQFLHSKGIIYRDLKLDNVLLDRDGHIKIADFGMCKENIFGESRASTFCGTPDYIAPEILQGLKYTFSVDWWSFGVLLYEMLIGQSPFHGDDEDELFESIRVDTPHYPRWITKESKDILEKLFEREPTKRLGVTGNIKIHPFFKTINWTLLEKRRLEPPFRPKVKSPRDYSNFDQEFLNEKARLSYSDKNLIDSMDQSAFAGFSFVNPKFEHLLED
ASSAY_NAME: competitive ELISA on purified PKC-δ vs anti-PKC-δ Ab; PRE 50 µM

# BINDER, UNIT_ABBREV, binding capacity (%)
measured = [
    ("Ac-RDAQNLI-NH2 (Synthetic peptide; also called peptide PRE 13; Ac-RDAQNLI-NH2) [PRE 13]", "%", 0),
    ("RRKKGGKDFVVKR (Synthetic peptide, solid phase synthesis; termini given free; also called peptide PRE 1) [PRE 1]", "%", 35.7),
    ("Ac-RDAQNLIGISI-NH2 (Synthetic peptide; also called peptide PRE 11) [PRE 11]", "%", 34.1),
]
